test system: Pseudomonas aeruginosa 9027; assay: In vitro antibacterial activity (MIC), agar dilution; format: cell-based; settings: 2-fold agar dilution, Muller-Hinton agar, 18 hours at 37° C., read-out: minimum inhibitory concentration (MIC)
The compounds listed here are annotated with their MIC.
parameter-measured: MIC (µg/mL)

[[record]]
compound = "C[C@@H]1CN(c2c(F)c(N)c3c(=O)c(C(=O)O)cn(C4CC4)c3c2F)C[C@H](C)N1 [Sparfloxacin, sparfloxacin, reference compound]"
value = 0.781

[[record]]
compound = "CCON=C1CN(c2c(F)c(N)c3c(=O)c(C(=O)O)cn(C4CC4)c3c2F)CC12CNC2.CS(=O)(=O)O"
value = 0.781

[[record]]
compound = "O=C(O)c1cn(C2CC2)c2cc(N3CCNCC3)c(F)cc2c1=O [Ciprofloxacin, ciprofloxacin, reference compound]"
value = 0.195

